Biological target: T1, Human CXCR2 (human, UniProt P25025 1-360)
T1 sequence: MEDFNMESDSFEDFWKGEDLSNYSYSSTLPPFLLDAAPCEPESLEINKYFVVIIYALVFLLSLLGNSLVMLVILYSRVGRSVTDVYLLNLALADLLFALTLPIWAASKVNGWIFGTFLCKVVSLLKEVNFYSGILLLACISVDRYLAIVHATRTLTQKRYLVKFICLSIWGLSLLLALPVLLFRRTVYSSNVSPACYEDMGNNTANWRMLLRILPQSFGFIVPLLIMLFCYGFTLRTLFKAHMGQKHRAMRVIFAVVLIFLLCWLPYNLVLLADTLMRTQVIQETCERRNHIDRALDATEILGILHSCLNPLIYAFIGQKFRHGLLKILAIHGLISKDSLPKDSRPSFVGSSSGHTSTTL
Assay: cell-based or functional assay
attribute_measured: FLIPR IC50, GRO-α induced intracellular calcium release (nM)

binder="127D01 (VHH, not shown: small tags and cut ends) VHH: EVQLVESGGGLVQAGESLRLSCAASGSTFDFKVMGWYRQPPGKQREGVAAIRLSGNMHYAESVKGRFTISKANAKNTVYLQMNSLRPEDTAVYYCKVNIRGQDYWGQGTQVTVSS" value_unit=nM value=21.9
binder="2B2 (VHH, not shown: small tags and cut ends) VHH: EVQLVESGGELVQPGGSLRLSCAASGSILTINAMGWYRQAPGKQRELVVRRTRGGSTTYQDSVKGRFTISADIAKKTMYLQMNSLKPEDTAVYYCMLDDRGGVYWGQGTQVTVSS" value_unit=nM value=441

Each recorded value in this set is attributed to patent US20170101476A1.
